Molecular target: rat adrenergic α1B receptor (Rattus norvegicus)
Construct: obtained from Wistar Rat liver; from tissue; host or cells: Wistar rat liver
Sequence (P15823 whole entry): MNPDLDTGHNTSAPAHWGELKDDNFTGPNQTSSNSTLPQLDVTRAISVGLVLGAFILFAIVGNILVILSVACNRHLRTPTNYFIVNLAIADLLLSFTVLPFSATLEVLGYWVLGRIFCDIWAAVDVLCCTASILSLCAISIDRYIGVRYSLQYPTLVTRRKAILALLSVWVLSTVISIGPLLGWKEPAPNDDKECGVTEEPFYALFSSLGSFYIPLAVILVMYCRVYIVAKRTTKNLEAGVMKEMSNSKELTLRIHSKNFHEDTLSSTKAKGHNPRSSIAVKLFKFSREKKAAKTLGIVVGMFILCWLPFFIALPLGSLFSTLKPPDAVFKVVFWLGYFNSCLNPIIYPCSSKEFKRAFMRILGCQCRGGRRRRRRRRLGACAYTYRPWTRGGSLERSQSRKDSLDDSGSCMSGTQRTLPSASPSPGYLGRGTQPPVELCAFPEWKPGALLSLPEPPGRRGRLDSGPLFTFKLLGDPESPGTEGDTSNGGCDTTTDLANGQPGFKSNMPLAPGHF
Assay: Adrenergic α1B radioligand binding ([3H]Prozosin)
Details: compound at 1 μM; Wistar Rat liver; read-out: Adrenergic (1 μM) α1B, percent inhibition of specific binding
The following ranges of inhibition at 1 µM define the classes used here: lower bin = under 20%, middle bin = from 20% up to 80%, upper bin = 80% and over

{"columns": ["molecule", "class.name"],
 "data": [
  ["CCNC(=O)CCn1c2c(c3cc(C)ccc31)CN(C)CC2", "middle bin"],
  ["C#CCn1c2c(c3cc(C)ccc31)CN(C)CC2", "upper bin"],
  ["CCOC(=O)CCn1c2c(c3cc(C)ccc31)CN(C)CC2", "middle bin"],
  ["Cc1ccc2c(c1)c1c(n2CCC(=O)NC2CCCC2)CCN(C)C1", "middle bin"],
  ["CNC(=O)CCn1c2c(c3cc(C)ccc31)CN(C)CC2", "lower bin"],
  ["CCNC(=O)CCCn1c2c(c3cc(C)ccc31)CN(C)CC2", "middle bin"],
  ["Cc1ccc2c(c1)c1c(n2CCNC(=O)C2CCCNC2)CCN(C)C1 (centres unmarked)", "middle bin"],
  ["Cc1ccc2c(c1)c1c(n2CC#N)CCN(C)C1", "upper bin"],
  ["CCOC(=O)CCCn1c2c(c3cc(C)ccc31)CN(C)CC2", "middle bin"],
  ["Cc1ccc2c(c1)c1c(n2CCC(=O)NC2CCCCC2)CCN(C)C1", "lower bin"]
]}

----------
Examples of compounds with documented inhibition at 1 µM follow.
Target: human recombinant adrenergic α2A receptor (Homo sapiens)
Construct: expressed in transfected cells; host or cells: insect Sf9 cells
Sequence (P08913 whole entry): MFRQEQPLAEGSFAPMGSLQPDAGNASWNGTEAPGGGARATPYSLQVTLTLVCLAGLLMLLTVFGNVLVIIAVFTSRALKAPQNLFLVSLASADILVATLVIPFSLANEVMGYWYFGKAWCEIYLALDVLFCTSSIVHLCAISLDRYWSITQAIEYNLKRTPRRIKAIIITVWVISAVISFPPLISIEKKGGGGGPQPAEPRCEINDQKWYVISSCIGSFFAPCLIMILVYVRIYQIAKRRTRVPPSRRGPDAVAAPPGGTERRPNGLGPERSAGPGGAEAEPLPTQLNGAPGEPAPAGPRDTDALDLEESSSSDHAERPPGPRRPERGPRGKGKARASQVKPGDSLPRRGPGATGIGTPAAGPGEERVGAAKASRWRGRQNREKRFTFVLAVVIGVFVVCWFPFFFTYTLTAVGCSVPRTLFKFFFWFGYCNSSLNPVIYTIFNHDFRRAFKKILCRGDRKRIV
Assay: Adrenergic α2A radioligand binding ([3H]MK-912)
Settings: compound at 1 μM; insect Sf9 cells; read-out: Adrenergic (1 μM) α2A, percent inhibition of specific binding
value.type: inhibition at 1 µM (%)

{"columns": ["chemical.structure", "meas.value"],
 "data": [
  ["Cc1ccc2c(c1)c1c(n2CC(=O)NC(C)(C)C)CCN(C)C1", 10],
  ["CNC(=O)CCn1c2c(c3cc(C)ccc31)CN(C)CC2", 18],
  ["Cc1ccc2c(c1)c1c(n2CCC(=O)Nc2ccccc2)CCN(C)C1", 78],
  ["Cc1ccc2c(c1)c1c(n2CCC(=O)Nc2ccc(F)cc2)CCN(C)C1", 73],
  ["CC(C)OC(=O)Cn1c2c(c3cc(Cl)ccc31)CN(C)CC2", 25],
  ["Cc1ccc2c(c1)c1c(n2CCC(=O)NC(C)C)CCN(C)C1", 54],
  ["CCNC(=O)CCCn1c2c(c3cc(C)ccc31)CN(C)CC2", 59],
  ["CCOC(=O)CCn1c2c(c3cc(C)ccc31)CN(C)CC2", 62],
  ["CN1CCc2c(c3cc(Cl)ccc3n2CCC(=O)OC2CCCC2)C1", 95]
]}

----------
Biological target: human recombinant adrenergic α1D receptor (Homo sapiens, UniProt P25100)
Construct: expressed in transfected cells; host or cells: HEK-293 cells
Sequence (P25100 1-572): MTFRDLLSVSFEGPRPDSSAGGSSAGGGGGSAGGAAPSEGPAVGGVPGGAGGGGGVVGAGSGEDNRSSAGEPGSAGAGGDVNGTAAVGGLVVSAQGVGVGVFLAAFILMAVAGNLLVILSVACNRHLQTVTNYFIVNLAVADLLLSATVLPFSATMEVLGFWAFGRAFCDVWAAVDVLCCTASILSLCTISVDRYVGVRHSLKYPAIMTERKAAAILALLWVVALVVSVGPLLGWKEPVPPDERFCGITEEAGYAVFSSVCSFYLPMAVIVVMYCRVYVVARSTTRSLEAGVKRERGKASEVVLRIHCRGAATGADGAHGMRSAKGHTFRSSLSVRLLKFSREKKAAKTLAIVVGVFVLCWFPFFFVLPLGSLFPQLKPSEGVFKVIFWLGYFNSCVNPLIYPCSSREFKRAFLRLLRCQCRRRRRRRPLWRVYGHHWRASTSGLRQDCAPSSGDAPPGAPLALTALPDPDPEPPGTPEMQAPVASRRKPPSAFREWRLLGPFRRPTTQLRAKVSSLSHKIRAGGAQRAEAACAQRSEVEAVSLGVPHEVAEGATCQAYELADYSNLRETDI
Assay: Adrenergic α1D radioligand binding ([3H]Prozosin)
Details: compound at 1 μM; HEK-293 cells; read-out: Adrenergic (1 μM) α1D, percent inhibition of specific binding
Use 40% as the dividing line for inhibition at 1 µM, with the line itself on the y side and lower values as n.

{"columns": ["compound", "class.name"],
 "data": [
  ["CNC(=O)CCn1c2c(c3cc(C)ccc31)CN(C)CC2", "n"],
  ["CN1CCc2c(c3cc(Cl)ccc3n2CCC(=O)OCC2CCCCC2)C1", "y"],
  ["Cc1ccc2c(c1)c1c(n2CCC(=O)NC2CCCCC2)CCN(C)C1", "y"],
  ["CN1CCc2c(c3cc(Cl)ccc3n2CCCO)C1", "y"],
  ["CN1CCc2c(c3cc(Cl)ccc3n2CCC(=O)OCc2ccccc2)C1", "y"],
  ["CN1CCc2c(c3cc(Cl)ccc3n2CCC(=O)N(C)C)C1", "n"],
  ["Cc1ccc2c(c1)c1c(n2CC(=O)NC(C)C)CCN(C)C1", "n"],
  ["Cc1ccc2c(c1)c1c(n2CCBr)CCN(C)C1", "y"],
  ["CN1CCc2c(c3cc(Cl)ccc3n2CCC(=O)O)C1", "n"],
  ["CN1CCc2c(c3cc(Cl)ccc3n2CCC(=O)NC2CCCC2)C1", "y"],
  ["CN1CCc2c(c3cc(Cl)ccc3n2CC(=O)NC2CCCCC2)C1", "n"],
  ["CCNC(=O)Cn1c2c(c3cc(C)ccc31)CN(C)CC2", "n"],
  ["CN1CCc2c(c3cc(Cl)ccc3n2CC(N)=O)C1", "n"],
  ["CN1CCc2c(c3cc(Cl)ccc3n2CCO)C1", "y"],
  ["Cc1ccc2c(c1)c1c(n2CCC#N)CCN(C)C1", "y"],
  ["Cc1ccc2c(c1)c1c(n2CCNC(=O)c2ccncc2C)CCN(C)C1", "n"],
  ["CC(C)OC(=O)Cn1c2c(c3cc(Cl)ccc31)CN(C)CC2", "n"],
  ["CC(C)OC(=O)CCn1c2c(c3cc(Cl)ccc31)CN(C)CC2", "y"],
  ["Cc1ccc2c(c1)c1c(n2CCC(=O)NC2CCCC2)CCN(C)C1", "y"],
  ["CCCCOC(=O)Cn1c2c(c3cc(Cl)ccc31)CN(C)CC2", "y"],
  ["Cc1ccc2c(c1)c1c(n2CC(=O)O)CCN(C)C1", "n"],
  ["Cc1ccc2c(c1)c1c(n2CCNC(=O)c2ccc(F)cc2Cl)CCN(C)C1", "y"],
  ["Cc1ccc2c(c1)c1c(n2CCNC(=O)C2CCCNC2)CCN(C)C1 (stereo not shown)", "n"],
  ["CN1CCc2c(c3cc(Cl)ccc3n2CC(=O)OCC2CCCCC2)C1", "y"],
  ["CN1CCc2c(c3cc(Cl)ccc3n2CCC(N)=O)C1", "n"],
  ["Cc1ccc2c(c1)c1c(n2CCC(=O)NC(C)(C)C)CCN(C)C1", "y"],
  ["Cc1ccc2c(c1)c1c(n2CCC(N)=O)CCN(C)C1", "n"],
  ["CCNC(=O)CCn1c2c(c3cc(C)ccc31)CN(C)CC2", "n"],
  ["Cc1ccc2c(c1)c1c(n2CCN)CCN(C)C1", "n"],
  ["Cc1ccc2c(c1)c1c(n2CCC(=O)NCC2CCCCC2)CCN(C)C1", "y"],
  ["Cc1ccc2c(c1)c1c(n2C2CCCCC2O)CCN(C)C1 (stereo not shown)", "n"],
  ["CCOC(=O)CCn1c2c(c3cc(Cl)ccc31)CN(C)CC2", "y"],
  ["CCNC(=O)CCCn1c2c(c3cc(C)ccc31)CN(C)CC2", "n"],
  ["CN1CCc2c(c3cc(Cl)ccc3n2CC(=O)OC2CCCC2)C1", "y"],
  ["Cc1ccc2c(c1)c1c(n2CCNC(=O)c2ccncc2)CCN(C)C1", "n"],
  ["Cc1ccc2c(c1)c1c(n2CCNC(=O)C(C)C)CCN(C)C1", "n"],
  ["Cc1ccc2c(c1)c1c(n2CCC(=O)NC(C)C)CCN(C)C1", "y"],
  ["Cc1ccc2c(c1)c1c(n2CC(=O)NCC2CCCCC2)CCN(C)C1", "n"],
  ["Cc1ccc2c(c1)c1c(n2CC(=O)NCc2ccccc2)CCN(C)C1", "n"]
]}
